test: chemical genetic growth profiling, strain panel (AID 1159580);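 further: tested at 20 µM; growth read once vehicle control cultures reached saturation at 30 °C; 1 = growth at the plate median or of vehicle wells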; conditions: S. cerevisiae deletion strains, growth OD, locus YNL250W, strain rad50, stronger effect = lower value
In all, about 5,500 compounds went through this assay and about 2,000 (36%) were called active. About 18% were inconclusive and are not listed. The list shows a part of the results.
Output yes for records whose normalized growth is lower than 1, no for records at or above 1.

normalized growth under 1? Item: COC1C=CC23c4cc5c(cc4CN(CC2O)[C@@H]3C1)OCO5 (some centres not stated)
no

Consider the compound C[C@]12CCC3C(CC[C@H]4C[C@H](O)CC[C@]34C)C1CC[C@@H]2O (some centres not stated) . Is its normalized growth strictly less than 1?
yes

Dear colleague, could you confirm whether normalized growth of CCN1C[C@@]2(COC)C3[C@@H](OC)[C@H]4[C@@H]1[C@]3(C(OC)C[C@H]2O)C1C[C@@]2(O)[C@H](OC(=O)c3ccccc3)C1[C@]4(OC(C)=O)[C@@H](O)[C@@H]2OC (some centres not stated) falls below 1? Thanks.
no

Hi there! Is normalized growth for CC1[C@H](C)OC(=O)CC(O)CC(O)CC(O)CCC(O)C(O)C[C@]2(O)CC(O)C(C(=O)O)C(CC(OC3O[C@H](C)[C@@H](O)[C@H](N)[C@@H]3O)/C=C/C=C/C=C/C=C/CC/C=C/C=C/[C@H](C)[C@H]1O)O2 (some centres not stated) below 1, do you know?
yes

normalized growth strictly < 1 for this compound? C[C@]12C=CC(=O)C=C1CCC1C2[C@@H](O)C[C@@]2(C)C1CC[C@]2(O)C(=O)CO (some centres not stated)
yes

###

assay: chemical genetic growth profiling, strain panel (AID 1159580);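 further: tested at 20 µM; growth read once vehicle control cultures reached saturation at 30 °C; 1 = growth at the plate median or of vehicle wells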; details: S. cerevisiae deletion strains, growth OD, locus YLR039C, strain RIC1, stronger effect = lower value
About 2,000 (36%) of roughly 5,500 compounds were called active. Inconclusive results (about 18%) are left out. The list shows a part of the results.
Provide the reported normalized growth of each item.
The reply should be a number, written without any unit.

Reported normalized growth, compound COP(=S)(OC)Oc1ccc([N+](=O)[O-])cc1 : ____
0.877

Consider the compound Clc1ccc(COC(Cn2ccnc2)c2ccc(Cl)cc2Cl)c(Cl)c1 (stereo not given) and give its measured normalized growth.
0.0754

Entry CC(=O)Oc1ccc2c(c1)CCC1C2CC[C@]2(C)C(=O)CCC12 (stereo not given in full) has what normalized growth?
0.725

Look up normalized growth for this compound: C[C@]12CCC3c4ccc(OC(=O)c5ccccc5)cc4CCC3C1CCC2=O (stereo not given in full)
1.01

// query normalized growth value for entry CC(=O)O[C@@H]1CC2C(C)(C)[C@H](O)CC[C@]2(C)C2CC[C@@]3(C)[C@H](c4ccoc4)OC(=O)[C@H]4O[C@]43[C@@]21C (stereo not given in full)
1.07

Which normalized growth is reported for this compound? NCCCC(=O)O
0.999

Can you share its normalized growth? I mean this compound: Cc1cc(CC(=O)O)n(C)c1C(=O)c1ccc(Cl)cc1
1

Looking for the measured normalized growth of COc1ccc2c(c1)OCC(Cc1ccc(OC)c(O)c1)C2=O (stereo not given) , can you help?
1.02

Requested field: normalized growth. Item: C=C[C@@]1(C)CC(=O)[C@@]2(O)[C@](C)(O1)[C@@H](OC(C)=O)[C@@H](O)C1C(C)(C)CC[C@H](O)[C@@]12C (stereo not given in full)
0.939

What value of normalized growth has been recorded for this entry: COC[C@]12CN(C=O)C3[C@@H]4[C@H](OC)C1[C@]3(C1CC3(O)C(OC)C(O)C4(OC(C)=O)C1C3OC(=O)c1ccccc1)[C@@H](OC)C[C@H]2O (stereo not given in full)
1.06

GET /values?readout=normalized growth&item= CC(=O)O[C@@H]1CC2C(C)(C)C(=O)C3OC3[C@]2(C)C2CC[C@@]3(C)[C@H](c4ccoc4)OC(=O)C4OC43[C@@]21C (stereo not given in full)
1.06

Given the entry C[C@]12CCC3c4ccc(OC(=O)CCC(=O)O)cc4CCC3C1CCC2=O (stereo not given in full) , report its measured normalized growth.
0.578

Field request: normalized growth | item: O=C1c2ccccc2C2(c3ccccc3)NCCN12 (stereo not given)
0.976

Item CC1(C)C(=O)[C@@H]2O[C@@H]2[C@@]2(C)C1C[C@@H](O)[C@]1(C)C2CC[C@@]2(C)[C@H](c3ccoc3)OC(=O)C3OC321 (stereo not given in full) has what recorded normalized growth?
1.11

State the recorded normalized growth for this entry: CC(=O)O[C@@H]1CC2C(C)(C)[C@H](O)CC[C@]2(C)C2CC[C@@]3(C)[C@H](c4ccoc4)OC(=O)C4OC43[C@@]21C (stereo not given in full)
1.01

May I ask what normalized growth has been recorded for CCCCCCCCCCCC(=O)OCC(COP(=O)(O)OCC(O)COP(=O)(O)OCC(COC(=O)CCCCCCCCCCC)OC(=O)CCCCCCCCCCC)OC(=O)CCCCCCCCCCC (stereo not given) ?
0.671

Reported normalized growth, compound Clc1ccc(CSC(Cn2ccnc2)c2ccc(Cl)cc2Cl)cc1 (stereo not given) : ____
0.079

For the compound Cc1ccc(C(=O)c2ccc(CC(=O)O)n2C)cc1 , what normalized growth is on record?
0.996

What does the data say about its normalized growth? Entry: Nc1ncnc(SCc2ccc(Cl)cc2)n1
0.835

Item C[C@]12CCC3c4ccc(O)cc4CCC3C1CCC2=O (stereo not given in full) has what recorded normalized growth?
0.56

Recorded normalized growth of O=C(CN1CCOCC1)Nc1cc(C(F)(F)F)cc(C(F)(F)F)c1 , please.
1.06

// lookup normalized growth for NNC(=O)c1cnn(-c2ccc(Cl)cc2)c1C(F)(F)F
0.909

What measured normalized growth goes with O=C(O)CCCCCCCC(=O)O ?
0.999

Given the entry CCOC(=O)c1ccc(Oc2ccc(Cl)cc2Cl)c([N+](=O)[O-])c1 , report its measured normalized growth.
1

What normalized growth value was documented for this compound, Cc1onc(-c2ccccc2Cl)c1C(=O)N1CCCN2C(=O)c3ccccc3C21 (stereo not given) ?
0.995

Give its normalized growth value. Item: O=[N+]([O-])c1ccc(C(O)C(O)CO)cc1 (stereo not given)
0.974

Can you look up the measured normalized growth of CCOC(=O)c1sc2sc(C(=O)c3ccc(Cl)cc3)c(C)c2c1C for me?
1.06

So what does the record say about normalized growth for CC(=O)O[C@H]1C[C@@H](OC(C)=O)C(C)(C)C2C[C@@H](O)[C@]3(C)C(CC[C@@]4(C)[C@H](c5ccoc5)OC(=O)[C@H]5O[C@]543)[C@]21C (stereo not given in full) ?
0.97

Which normalized growth value belongs to COc1cc2c(cc1OC)C1(O)C(=O)c3ccc(O)c(C(=O)O)c3OC1CO2 (stereo not given) ?
1.08

Please give the measured normalized growth for this compound: CCOC(=O)C(O)(c1ccc(N)c(C)c1)C(F)(F)F (stereo not given)
0.988

Query: normalized growth; subject: CCOC(=O)c1cnn(-c2ccc(F)cc2)c1N
1.04

Record request: normalized growth value, item CC(=O)OC1CC(OC(C)=O)C2(C)C(CC(OC(C)=O)C3(C)C2CCC2(C)C(c4ccoc4)OC(=O)C4OC423)C1(C)C (stereo not given)
0.929

For FC(F)(F)Oc1ccccc1-c1nnc(-c2ccc(Cl)cc2)o1 , what is its reported normalized growth?
0.874

Please report the recorded normalized growth for O/N=C(/CNC(c1ccccc1)(c1ccccc1)c1ccccc1)c1ccccc1 .
1.01

Which normalized growth is listed for CC(=O)O[C@@H]1CC2C(C)(C)[C@@H](O)CC[C@]2(C)C2CC[C@@]3(C)[C@H](c4ccoc4)OC(=O)[C@H]4O[C@]43[C@@]21C (stereo not given in full) ?
0.981

Entry under review: NCCCCC(=O)O . Reported normalized growth?
1.06

If you can, please state the reported normalized growth value of O=C(O)CCC1NCC2CC1CN1CCCCC21 (stereo not given) .
0.998

What value of normalized growth has been recorded for this entry: CC(=O)O[C@H]1C[C@@H](OC(C)=O)C(C)(C)C2C[C@@H](OC(C)=O)[C@]3(C)C(CC[C@@]4(C)[C@H](c5ccoc5)OC(=O)[C@H]5O[C@]543)[C@]21C (stereo not given in full)
0.981

What value of measured normalized growth is listed for Clc1ccc(COC(Cn2ccnc2)c2ccc(Cl)cc2Cl)cc1 (stereo not given) ?
0.0808

Can you look up the measured normalized growth of CCc1cccc(C)c1NC(=O)CC(C)(C)CC(=O)O for me?
1.03

###

assay: chemical genetic growth profiling, strain panel (AID 1159580);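 further: tested at 20 µM; growth read once vehicle control cultures reached saturation at 30 °C; 1 = growth at the plate median or of vehicle wells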; conditions: S. cerevisiae deletion strains, growth OD, locus YCL016C, strain dcc1
In all, about 5,500 compounds went through this assay and about 2,000 (36%) were called active. Inconclusive results (about 18%) are left out. No stated cut-off is given here; in the data, active means normalized growth mostly below about 0.91 (no sharp cut-off); inconclusive means no clear call, values can overlap the other calls; inactive means mostly above about 0.92. The list shows a part of the results.
Field 'call' accepts active, inactive

Which result was noted for this compound in the test: C[C@@H]1CC2C3CCC4=CC(=O)C=C[C@]4(C)[C@@]3(F)[C@@H](O)C[C@]2(C)[C@@]1(O)C(=O)CO (stereo not given in full)
inactive

Identify the outcome logged in this assay for the compound shown: O=C(O)C1CCCNC1 (stereo not given)
inactive

Please indicate how the test categorized O=C(O)COc1ccc(Cl)cc1Cl .
inactive

Assay outcome for CC(=O)Oc1ccc2c(c1)CCC1C2CC[C@]2(C)C(=O)CCC12 (stereo not given in full) : what was it?
inactive

// outcome(item) with item = C[C@]12CCC3c4ccc(O)cc4CCC3C1CCC2=O (stereo not given in full)
inactive

Would you mind telling me which call this test gave C[C@]12CCC3c4ccc(OC(=O)c5ccccc5)cc4CCC3C1CCC2=O (stereo not given in full) ?
inactive

Tell me the recorded outcome of this test for COc1ccc2oc3ccccc3c(=O)c2c1 .
active

Call for entry COc1ccc(-c2oc3cc(OC)c(OC)c(OC)c3c(=O)c2OC)cc1OC :
inactive

For this compound, state the assay outcome: CC12CCC3C(=CCc4cc(O)ccc43)C1CCC2=O (stereo not given)
inactive

Query: recorded result category for CC(=O)O[C@H]1C[C@@]2(C)[C@@H](C[C@@H](O)C3[C@]2(C)CC[C@H]2[C@H](C)[C@H](O)CC[C@]32C)/C1=C(/CCC=C(C)C)C(=O)O (stereo not given in full) in this test
inactive
